TESTED TARGET: 80S ribosome
EXPERIMENT: Fluorescence anisotropy binding to 80S ribosomes
Design: species or system yeast (S. cerevisiae)
CONDITION DESCRIPTION: competition with CRP, yeast ribosomes; read-out: Dissociation constant (KD) with 80S ribosome
pKd: −log10 of the molar value.
The threshold is inclusive: pKd of exactly 5 counts as yes; values below receive no.

- MOLECULE: "NCC1OC(OC2C(N)CC(N)C(O)C2O)C(N)C(O)C1O [L-Neamine]"
  ASSIGNED CATEGORY: "yes"
- MOLECULE: "NCC1OC(OC2C(O)C(N)CC(N)C2O)C(N)C(O)C1O [5-Isomer of D-Neamine (2), 5-isomer of D-Neamine]"
  ASSIGNED CATEGORY: "yes"

Let us examine a further case.
Problem: Given `[H]/N=C(/N)N[C@H]1[C@H](O)[C@@H](O)[C@H](O[C@@H]2O[C@@H](C)[C@](O)(C=O)[C@H]2O[C@@H]2O[C@@H](CO)[C@H](O)[C@@H](O)[C@@H]2NC)[C@@H](N/C(N)=N\[H])[C@@H]1O` , state whether its pKd is at least 5.
Result: no

====

TESTED TARGET: RNA aptamer J6f1, D-RNA
EXPERIMENT: Fluorescence anisotropy binding, D-J6f1 tobramycin binding aptamer
CONDITION DESCRIPTION: competition with CRT; read-out: Dissociation constant of aminoglycoside complex with D-J6f1
ASSAY METRIC: pKd
Numbers only, as −log10 of the molar value.

Problem: Query pKd for `NC[C@H]1O[C@H](O[C@H]2[C@H](O)[C@@H](O[C@H]3O[C@H](CO)[C@@H](O)[C@H](N)[C@H]3O)[C@H](N)C[C@@H]2N)[C@H](N)C[C@@H]1O`
Result: 8.28

====

TESTED TARGET: 70S ribosome
EXPERIMENT: Fluorescence anisotropy binding to 70S ribosomes
CONDITION DESCRIPTION: competition with CRP, E. coli ribosomes; read-out: Dissociation constant (KD) with 70S ribosome
Kindly supply the reported pKd values for the records listed here.
One number for each entry, as −log10 of the molar value.

In the examples that follow, each entry is paired with its recorded pKd.
- MOLECULE: "NCC1OC(OC2C(O)C(N)CC(N)C2O)C(N)C(O)C1O (single isomer, unassigned) [5-Isomer of L-Neamine (ent-2), 5-isomer of L-Neamine]"
  pKd: 5.81
- MOLECULE: "NC[C@@H]1O[C@H](O[C@H]2[C@@H](O)[C@H](O[C@@H]3[C@@H](O)[C@H](N)C[C@H](N)[C@H]3O[C@H]3O[C@H](CO)[C@@H](O)[C@H](O)[C@H]3N)O[C@@H]2CO)[C@H](N)[C@@H](O)[C@@H]1O [Paromomycin]"
  pKd: 5.85

For the next question, use this molecule.
Problem: Query pKd for NCC1OC(OC2C(N)CC(N)C(O)C2O)C(N)C(O)C1O [6-Isomer of D-Neamine (3), 6-isomer of D-Neamine]
Result: 4.51

====

Test system: E. coli S30 extract, containing 70S ribosomes
EXPERIMENT: In vitro protein translation (CAT mRNA, 35S methionine incorporation)
Type: biochemical
CONDITION DESCRIPTION: quantitation of gel bands, read-out: IC50, concentration producing 50% inhibition of translation
ASSAY METRIC: IC50 (µM)
One number for each entry, in µM.

- COMPOUND: "NCC1OC(OC2C(N)CC(N)C(O)C2O)C(N)C(O)C1O [L-Neamine]"
  IC50, µM: 195

For the next question, use this compound.
Problem: Give IC50 for this entry on E. coli S30 extract, containing 70S ribosomes: NCC1OC(OC2C(N)CC(N)C(O)C2O)C(N)C(O)C1O [D-Neamine]
Result: 38

====

TESTED TARGET: 70S ribosome
EXPERIMENT: Fluorescence anisotropy binding to 70S ribosomes
CONDITION DESCRIPTION: competition with CRP, E. coli ribosomes; read-out: Dissociation constant (KD) with 70S ribosome
Kindly supply the reported Kd values for the records listed here.
Answers are plain numbers, in nM.

- MOLECULE: "NCC1OC(OC2C(N)CC(N)C(O)C2O)C(N)C(O)C1O [D-Neamine]"
  UNIT STRING: "nM"
  Kd: 5450
- MOLECULE: "NCC1OC(OC2C(N)CC(N)C(O)C2O)C(N)C(O)C1O (single isomer, unassigned) [4-Isomer of L-Neamine (ent-3), 4-isomer of L-Neamine]"
  UNIT STRING: "nM"
  Kd: 6400
- MOLECULE: "NCC1OC(OC2C(N)CC(N)C(O)C2O)C(N)C(O)C1O [L-Neamine]"
  UNIT STRING: "nM"
  Kd: 2690
- MOLECULE: "NCC1OC(OC2C(O)C(N)CC(N)C2O)C(N)C(O)C1O [5-Isomer of D-Neamine (2), 5-isomer of D-Neamine]"
  UNIT STRING: "nM"
  Kd: 910

For the next question, use this molecule.
Problem: Query Kd for `NC[C@H]1O[C@H](O[C@H]2[C@H](O)[C@@H](O[C@H]3O[C@H](CO)[C@@H](O)[C@H](N)[C@H]3O)[C@H](N)C[C@@H]2N)[C@H](N)C[C@@H]1O`
Result: 1760

====

TESTED TARGET: RNA aptamer J6f1, L-RNA
EXPERIMENT: Fluorescence anisotropy binding, L-J6f1 tobramycin binding aptamer
CONDITION DESCRIPTION: competition with CRT; listed as tobramycin; read-out: Dissociation constant of aminoglycoside complex with L-J6f1
ASSAY METRIC: Kd (µM)
Numbers only, in µM.

Problem: Query Kd for `NC[C@H]1O[C@H](O[C@H]2[C@H](O)[C@@H](O[C@H]3O[C@H](CO)[C@@H](O)[C@H](N)[C@H]3O)[C@H](N)C[C@@H]2N)[C@H](N)C[C@@H]1O`
Result: 2.2

====

TESTED TARGET: RNA aptamer J6f1, D-RNA
EXPERIMENT: Fluorescence anisotropy binding, D-J6f1 tobramycin binding aptamer
CONDITION DESCRIPTION: read-out: KD of tobramycin with RNA aptamer J6f1
ASSAY METRIC: Kd

Problem: Query Kd for NC[C@H]1O[C@H](O[C@H]2[C@H](O)[C@@H](O[C@H]3O[C@H](CO)[C@@H](O)[C@H](N)[C@H]3O)[C@H](N)C[C@@H]2N)[C@H](N)C[C@@H]1O [Tobramycin]
Result: 5 nM

====

TESTED TARGET: 80S ribosome
EXPERIMENT: Fluorescence anisotropy binding to 80S ribosomes
Parameters: species or system yeast (S. cerevisiae)
CONDITION DESCRIPTION: competition with CRP, yeast ribosomes; read-out: Dissociation constant (KD) with 80S ribosome
Kindly supply the reported pKd values for the records listed here.
Numbers only, as −log10 of the molar value.

In the examples that follow, each entry is paired with its recorded pKd.
- COMPOUND: "NC[C@@H]1O[C@H](O[C@H]2[C@@H](O)[C@H](O[C@@H]3[C@@H](O)[C@H](N)C[C@H](N)[C@H]3O[C@H]3O[C@H](CO)[C@@H](O)[C@H](O)[C@H]3N)O[C@@H]2CO)[C@H](N)[C@@H](O)[C@@H]1O"
  pKd: 5.71
- COMPOUND: "NCC1OC(OC2C(O)C(N)CC(N)C2O)C(N)C(O)C1O (single isomer, unassigned) [5-Isomer of L-Neamine (ent-2), 5-isomer of L-Neamine]"
  pKd: 5.82
- COMPOUND: "NC[C@H]1O[C@H](O[C@H]2[C@H](O)[C@@H](O[C@H]3O[C@H](CO)[C@@H](O)[C@H](N)[C@H]3O)[C@H](N)C[C@@H]2N)[C@H](N)C[C@@H]1O"
  pKd: 5.43
- COMPOUND: "NCC1OC(OC2C(N)CC(N)C(O)C2O)C(N)C(O)C1O [D-Neamine]"
  pKd: 5.94
- COMPOUND: "NCC1OC(OC2C(N)CC(N)C(O)C2O)C(N)C(O)C1O [6-Isomer of D-Neamine (3), 6-isomer of D-Neamine]"
  pKd: 4.65

For the next question, use this compound.
Problem: Give pKd for this entry on 80S ribosome: NCC1OC(OC2C(N)CC(N)C(O)C2O)C(N)C(O)C1O (single isomer, unassigned) [4-Isomer of L-Neamine (ent-3), 4-isomer of L-Neamine]
Result: 4.48
